# target.desc: c-Src (Homo sapiens (Human), UniProt P12931)
# Sequence (P12931 whole entry, looked up): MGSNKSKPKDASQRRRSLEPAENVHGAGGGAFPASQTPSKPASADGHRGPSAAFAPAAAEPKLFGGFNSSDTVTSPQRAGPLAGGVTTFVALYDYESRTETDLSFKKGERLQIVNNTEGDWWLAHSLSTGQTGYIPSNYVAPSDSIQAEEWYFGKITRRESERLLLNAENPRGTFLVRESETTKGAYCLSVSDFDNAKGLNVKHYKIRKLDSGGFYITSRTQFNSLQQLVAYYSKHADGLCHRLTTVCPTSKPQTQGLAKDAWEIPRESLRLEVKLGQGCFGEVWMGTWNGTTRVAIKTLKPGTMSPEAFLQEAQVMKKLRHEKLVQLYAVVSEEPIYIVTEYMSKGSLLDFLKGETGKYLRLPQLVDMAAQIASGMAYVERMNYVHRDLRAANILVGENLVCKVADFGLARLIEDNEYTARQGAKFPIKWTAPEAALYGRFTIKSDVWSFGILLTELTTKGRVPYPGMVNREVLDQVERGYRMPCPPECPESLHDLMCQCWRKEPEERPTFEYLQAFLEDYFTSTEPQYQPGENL
# protocol.notes: TR-FRET c-Src kinase assay
# Type: biochemical
# stated.conditions: read-out: c-SRC % inhibition at 1 μM; 1 μM; ATP 50 μM
# Experimental: Compounds were screened in the TR-FRET assay for JAK2 and c-Src kinase inhibition. Ultra light poly GT (Perkin Elmer) was used as the substrate for JAK2 and c-Src with the ATP concentration of 10 μM and 50 μM, respectively. […] The dose-response curve fitting was done using GraphPad Prism software.

smiles.record	units.text	inhibition at 1 µM
Cc1ccc(NC(=O)c2cc(C(F)(F)F)ccn2)cc1N1CCc2nc(Nc3ccc(C(=O)N4CCN(C)CC4)cc3)ncc2C1	%	98
Cc1ccc(NC(=O)c2cccc(C(F)(F)F)c2)cc1N1CCc2nc(Nc3ccc(S(=O)(=O)NC4CC4)cc3)ncc2C1	%	98
Cc1ccc(NC(=O)N2CCCCC2)cc1N1CCc2nc(Nc3ccc(OCCN4CCCC4)cc3)ncc2C1	%	98
Cc1ccc(NC(=O)CCC(F)(F)F)cc1N1CCc2nc(Nc3ccc(N4CCN(C)CC4)cc3)ncc2C1	%	90
Cc1ccc(NC(=O)c2ccc(C(F)(F)F)s2)cc1N1CCc2nc(Nc3ccc(OCCN4CCCC4)cc3)ncc2C1	%	100
Cc1ccc(NC(=O)c2cccc(C(F)(F)F)c2)cc1N1CCc2nc(Nc3ccc(OCCCN4CCOCC4)cc3)ncc2C1=O	%	80
CNC(=O)c1ccc(Nc2ncc3c(n2)CCN(c2cc(NC(=O)c4cccc(C(F)(F)F)c4)ccc2Cl)C3)cc1	%	96
